# ASSAY_NAME: method code SF-HPLC, from DOI: 10.1021/jm4016729, PMID: 24422550
# CONDITION_NOTES: pH 7.4
MEASURED_QUANTITY: logD

A = Cc1nc(C2=COC2)c(C(=O)NC2C3CC4CC2C(O)(C4)C3)s1 (configuration not stated)
B = O=C(NC1C2CC3CC1CC(O)(C3)C2)c1sc(C2CCCO2)nc1C1CC1 (configuration not stated)
Between A and B , whose recorded logD is greater? Pick one; state its label. B
